protocol notes: Liver S9 metabolic stability assay, human
Type: in vitro ADME
condition: 3 μM, 60 min
metric: Human S9 metabolic stability (% remaining)
Numbers only; they are read as % remaining.

Complete the entry with Human S9 metabolic stability for Cc1cccnc1Nc1nc(-c2cc(C#N)c(OC(C)C)cn2)ns1
100

Complete the entry with Human S9 metabolic stability for CC(C)Oc1ccc(-c2nsc(Nc3ncccc3C(C)C)n2)nc1
99

Complete the entry with Human S9 metabolic stability for Cc1cccnc1N(C)c1nc(-c2ccc(OC(C)C)cn2)ns1
96

Complete the entry with Human S9 metabolic stability for CC(C)Oc1ccc(-c2nsc(Nc3cc(C(F)(F)F)c(C(C)C)cn3)n2)nc1
100

Complete the entry with Human S9 metabolic stability for Cc1ccnc(-c2nsc(Nc3ncccc3C(F)(F)F)n2)c1
56

Complete the entry with Human S9 metabolic stability for COc1ccc(Nc2nc(-c3ccccn3)cs2)nc1
59

Complete the entry with Human S9 metabolic stability for Cc1cccnc1Nc1nc(-c2cc(C#N)ccn2)ns1
65

Complete the entry with Human S9 metabolic stability for Cc1nccnc1Nc1nc(-c2ccc(OC(C)C)cn2)ns1
94

Complete the entry with Human S9 metabolic stability for CC(C)Oc1ccc(-c2nsc(Nc3ncccc3N(C)C)n2)nc1
86

Complete the entry with Human S9 metabolic stability for Cc1cccnc1Nc1nc(-c2ccc(C#N)cn2)ns1
66

Complete the entry with Human S9 metabolic stability for CC(C)Oc1ccc(-c2nsc(N(C)c3ncccc3C(C)C)n2)nc1
32

Complete the entry with Human S9 metabolic stability for CC(C)c1ccnc(-c2nsc(Nc3ncccc3C(F)(F)F)n2)c1
45

Complete the entry with Human S9 metabolic stability for Cc1cccnc1Nc1nc(-c2cc(C3CCN(C)CC3)ccn2)ns1
78

Complete the entry with Human S9 metabolic stability for CNc1cccnc1Nc1nc(-c2ccc(OC(C)C)cn2)ns1
86

Complete the entry with Human S9 metabolic stability for Cc1cccnc1Nc1nc(-c2cnc(OC(C)C)cn2)ns1
81

* * *

subject of test: P-gp (MDR1) (Homo sapiens, UniProt P08183)
Construct: expressed in transfected cells; host or cells: MDCK (Madin Darby canine kidney) cells
Sequence (P08183 whole entry): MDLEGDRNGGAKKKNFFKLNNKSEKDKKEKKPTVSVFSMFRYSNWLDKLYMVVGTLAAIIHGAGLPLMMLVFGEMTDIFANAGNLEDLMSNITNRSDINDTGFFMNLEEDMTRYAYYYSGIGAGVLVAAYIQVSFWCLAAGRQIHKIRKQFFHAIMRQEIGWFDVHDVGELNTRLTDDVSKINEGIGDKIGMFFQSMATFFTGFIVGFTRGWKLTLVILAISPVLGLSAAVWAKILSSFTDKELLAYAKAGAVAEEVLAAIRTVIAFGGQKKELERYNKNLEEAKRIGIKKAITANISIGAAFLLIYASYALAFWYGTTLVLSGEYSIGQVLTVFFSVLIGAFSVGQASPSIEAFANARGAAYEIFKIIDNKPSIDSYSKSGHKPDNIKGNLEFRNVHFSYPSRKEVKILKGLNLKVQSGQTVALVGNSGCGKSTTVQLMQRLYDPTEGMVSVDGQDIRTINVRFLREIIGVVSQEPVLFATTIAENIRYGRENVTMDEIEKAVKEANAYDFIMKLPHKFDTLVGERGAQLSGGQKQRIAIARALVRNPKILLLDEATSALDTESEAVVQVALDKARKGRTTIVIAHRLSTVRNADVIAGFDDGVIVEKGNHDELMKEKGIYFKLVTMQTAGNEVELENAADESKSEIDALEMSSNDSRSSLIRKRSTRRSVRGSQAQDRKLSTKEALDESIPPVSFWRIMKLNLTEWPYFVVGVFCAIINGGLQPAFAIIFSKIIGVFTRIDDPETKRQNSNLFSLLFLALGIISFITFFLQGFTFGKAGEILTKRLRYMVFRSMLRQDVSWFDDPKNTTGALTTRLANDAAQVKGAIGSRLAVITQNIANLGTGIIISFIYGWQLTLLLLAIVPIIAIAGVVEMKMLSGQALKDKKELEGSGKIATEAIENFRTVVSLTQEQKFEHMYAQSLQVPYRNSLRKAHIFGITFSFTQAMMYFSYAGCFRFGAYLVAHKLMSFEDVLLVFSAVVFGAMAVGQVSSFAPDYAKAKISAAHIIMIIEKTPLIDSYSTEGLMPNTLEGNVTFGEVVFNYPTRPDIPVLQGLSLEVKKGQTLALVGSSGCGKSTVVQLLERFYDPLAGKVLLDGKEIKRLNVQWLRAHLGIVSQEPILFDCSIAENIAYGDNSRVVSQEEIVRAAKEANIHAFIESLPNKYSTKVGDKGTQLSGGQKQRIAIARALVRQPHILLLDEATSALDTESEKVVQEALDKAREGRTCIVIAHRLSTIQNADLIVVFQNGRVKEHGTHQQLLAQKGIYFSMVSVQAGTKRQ
protocol notes: MDCK/MDR1 permeability and efflux
Type: in vitro ADME
condition: dog
Note to self: use Y only for Papp A→B readings below 9 ×10⁻⁶ cm/s; a reading exactly at 9 ×10⁻⁶ cm/s still gets N.

| structure string | label value |
| --- | --- |
| CC(C)Oc1ccc(-c2nsc(Nc3ncccc3N(C)C(=O)C3CC3)n2)nc1 | N |
| CC(=O)N(C)c1cccnc1Nc1nc(-c2cc(C(F)(F)F)c(OC(C)C)cn2)ns1 | Y |
| CC(C)Oc1cccnc1-c1nsc(Nc2ncc(C(F)(F)F)cc2C(=O)N(C)C)n1 | N |
| CC(=O)N(C)c1cccnc1Nc1nc(-c2ccc(OC(C)C)cn2)ns1 | Y |
| CC(=O)N(C)c1cc(C(F)(F)F)cnc1Nc1nc(-c2ccc(OC(C)C)cn2)ns1 | N |
| CC(C)Oc1ccc(-c2nsc(Nc3ncccc3C(=O)N(C)C)n2)nc1 | Y |
| CC(C)Oc1ccc(-c2nsc(Nc3ncccc3C(N)=O)n2)nc1 | Y |
| CC(C)Oc1cnc(-c2nsc(Nc3ncccc3N3CCCC3=O)n2)cc1C(F)(F)F | N |

Take the molecule CC(=O)N(C)c1cnc(Nc2nc(-c3ccc(OC(C)C)cn3)ns2)c(C)c1 and say whether its Papp A→B is less than 9 ×10⁻⁶ cm/s.
N

Take the molecule CC(=O)N(C)c1cc(C(F)(F)F)cnc1Nc1nc(-c2cc(OC(C)C)ccn2)ns1 and say whether its Papp A→B is less than 9 ×10⁻⁶ cm/s.
Y

* * *

protocol notes: Mouse pharmacokinetics
Format: in vivo
condition: plasma; male CD-1 mouse, PO 10 mg/kg vs IV 2 mg/kg
metric: bioavailability (%)
Numbers only; they are read as %.

| compound | metric | value observed |
| --- | --- | --- |
| CC(C)Oc1ccc(-c2nsc(Nc3ncccc3N(C)C)n2)nc1 [Compound 31] | bioavailability | 13 |

Now let's try a different one.
Complete the entry with bioavailability for CC(=O)N(C)c1cccnc1Nc1nc(-c2ccc(OC(C)C)cn2)ns1 [Compound 47]
57

* * *

subject of test: CYP3A4 (Homo sapiens, UniProt P08684)
Sequence (P08684 whole entry): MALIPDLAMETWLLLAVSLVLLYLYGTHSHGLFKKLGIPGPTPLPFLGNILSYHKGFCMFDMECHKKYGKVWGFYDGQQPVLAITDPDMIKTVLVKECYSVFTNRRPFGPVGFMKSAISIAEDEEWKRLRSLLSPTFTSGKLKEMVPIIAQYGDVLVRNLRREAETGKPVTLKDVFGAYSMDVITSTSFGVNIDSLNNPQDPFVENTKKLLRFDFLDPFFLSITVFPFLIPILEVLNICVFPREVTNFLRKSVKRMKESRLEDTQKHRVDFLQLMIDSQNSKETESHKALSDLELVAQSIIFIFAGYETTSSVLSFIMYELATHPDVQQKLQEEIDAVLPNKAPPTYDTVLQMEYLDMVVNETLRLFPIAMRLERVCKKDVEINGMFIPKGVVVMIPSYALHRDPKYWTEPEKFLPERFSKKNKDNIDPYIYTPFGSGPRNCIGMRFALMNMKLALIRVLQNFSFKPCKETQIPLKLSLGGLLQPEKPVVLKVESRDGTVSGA
protocol notes: Cytochrome P450 inhibition, 3A4
Type: in vitro ADME
condition: read-out: Cytochrome P450s IC50, 3A4
metric: pIC50
Remember the convention: pIC50 equals -log10 of concentration in molar.

Complete the entry with pIC50 for CC(C)Oc1ccc(-c2nsc(Nc3ncccc3N(C)C)n2)nc1
4.66

* * *

Entries and their measured logD at 24 h follow.
protocol notes: LogD measurement (octanol-water)
Assay type: physicochemical
condition: pH 7.4; read-out: logD
When you answer, write just the number.

Field: example entries. Status: answers known.
| structure string | value observed |
| --- | --- |
| Cc1cccnc1Nc1nc(-c2cnc(OC(C)C)cn2)ns1 | 3.1 |
| Cc1cccnc1Nc1nc(-c2ccc(C#N)cn2)ns1 | 2.75 |

Complete the entry with logD at 24 h for Cc1ccnc(-c2nsc(Nc3ncccc3C(F)(F)F)n2)c1
2.45

Complete the entry with logD at 24 h for Cc1cccnc1Nc1nc(-c2ccc(OC3CCN(C4CC4)CC3)cn2)ns1
3.3

Complete the entry with logD at 24 h for Cc1cccnc1Nc1nc(-c2ccc(C(=O)N(C)C)cn2)ns1
1.7

Complete the entry with logD at 24 h for CC(=O)N(C)c1cc(C(F)(F)F)cnc1Nc1nc(-c2ccccn2)ns1
2.2

Complete the entry with logD at 24 h for CC(C)Oc1cnc(-c2nsc(Nc3ncccc3N3CCCC3=O)n2)cc1C(F)(F)F
2.7

Complete the entry with logD at 24 h for COc1cccnc1Nc1nc(-c2cc(C)ccn2)ns1
2.1

Complete the entry with logD at 24 h for Cc1cccnc1N(C)c1nc(-c2ccc(OC(C)C)cn2)ns1
2.35

* * *

protocol notes: in vivo
condition: dog, po, 3 mg/kg
metric: bioavailability (%)
Numbers only; they are read as %.

Complete the entry with bioavailability for CC(C)Oc1ccc(-c2nsc(Nc3ncccc3N(C)C)n2)nc1 [Compound 31]
55

* * *

protocol notes: Liver S9 metabolic stability assay, rat
Format: in vitro ADME
condition: 3 μM, 60 min
# label = bin(measured Rat S9 metabolic stability), where bins are bottom bin (below 60 % remaining), middle bin (60 % remaining to below 80 % remaining), top bin (80 % remaining or more)

| molecule | label value |
| --- | --- |
| CC(C)c1ccnc(-c2nsc(Nc3cc(C(F)(F)F)ccn3)n2)c1 [Compound 35] | bottom bin |
| Cc1cccnc1Nc1nc(-c2ccc(OC3CC4(C3)CN(C3CC3)C4)cn2)ns1 [Compound 12] | bottom bin |
| Cc1nccnc1Nc1nc(-c2ccc(OC(C)C)cn2)ns1 [Compound 41] | top bin |
| Cc1cccnc1Nc1nc(-c2ccc(OC(C)C)cn2)ns1 [Compound 10] | top bin |

Determine which band this molecule sits in: COc1cccnc1Nc1nc(-c2ccc(OC(C)C)cn2)ns1 [Compound 28]
top bin

Determine which band this molecule sits in: Cc1cccnc1Nc1nc(-c2cnc(OC(C)C)cn2)ns1 [Compound 39]
middle bin

Determine which band this molecule sits in: CC(C)Oc1cc(-c2nsc(Nc3ncccc3N(C)C)n2)ncc1C(F)(F)F [Compound 33]
bottom bin

Determine which band this molecule sits in: Cc1cccnc1Nc1nc(-c2ccc(OC3CCN(C4CC4)CC3(F)F)cn2)ns1 (stereo not shown) [Compound 20]
bottom bin

Determine which band this molecule sits in: CN1CCC(Oc2ccc(Nc3nc(-c4ccccn4)ns3)nc2)CC1 [Compound 36]
top bin

Determine which band this molecule sits in: CC(C)Oc1ccc(-c2nsc(Nc3cc(C(F)(F)F)c(C(C)C)cn3)n2)nc1 [Compound 37]
top bin

Determine which band this molecule sits in: COc1cccnc1Nc1nc(-c2cc(C)ccn2)ns1 [Compound 29]
middle bin

Determine which band this molecule sits in: Cc1cccnc1Nc1nc(-c2ccc(OC3CCN(C4CC4)CC3)cn2)ns1 [Compound 19]
middle bin

* * *

subject of test: hERG potassium channels (KCNH2, expressed in HEK293 cells) (Homo sapiens, UniProt Q12809)
Construct: expressed in transfected cells
Sequence (Q12809 whole entry): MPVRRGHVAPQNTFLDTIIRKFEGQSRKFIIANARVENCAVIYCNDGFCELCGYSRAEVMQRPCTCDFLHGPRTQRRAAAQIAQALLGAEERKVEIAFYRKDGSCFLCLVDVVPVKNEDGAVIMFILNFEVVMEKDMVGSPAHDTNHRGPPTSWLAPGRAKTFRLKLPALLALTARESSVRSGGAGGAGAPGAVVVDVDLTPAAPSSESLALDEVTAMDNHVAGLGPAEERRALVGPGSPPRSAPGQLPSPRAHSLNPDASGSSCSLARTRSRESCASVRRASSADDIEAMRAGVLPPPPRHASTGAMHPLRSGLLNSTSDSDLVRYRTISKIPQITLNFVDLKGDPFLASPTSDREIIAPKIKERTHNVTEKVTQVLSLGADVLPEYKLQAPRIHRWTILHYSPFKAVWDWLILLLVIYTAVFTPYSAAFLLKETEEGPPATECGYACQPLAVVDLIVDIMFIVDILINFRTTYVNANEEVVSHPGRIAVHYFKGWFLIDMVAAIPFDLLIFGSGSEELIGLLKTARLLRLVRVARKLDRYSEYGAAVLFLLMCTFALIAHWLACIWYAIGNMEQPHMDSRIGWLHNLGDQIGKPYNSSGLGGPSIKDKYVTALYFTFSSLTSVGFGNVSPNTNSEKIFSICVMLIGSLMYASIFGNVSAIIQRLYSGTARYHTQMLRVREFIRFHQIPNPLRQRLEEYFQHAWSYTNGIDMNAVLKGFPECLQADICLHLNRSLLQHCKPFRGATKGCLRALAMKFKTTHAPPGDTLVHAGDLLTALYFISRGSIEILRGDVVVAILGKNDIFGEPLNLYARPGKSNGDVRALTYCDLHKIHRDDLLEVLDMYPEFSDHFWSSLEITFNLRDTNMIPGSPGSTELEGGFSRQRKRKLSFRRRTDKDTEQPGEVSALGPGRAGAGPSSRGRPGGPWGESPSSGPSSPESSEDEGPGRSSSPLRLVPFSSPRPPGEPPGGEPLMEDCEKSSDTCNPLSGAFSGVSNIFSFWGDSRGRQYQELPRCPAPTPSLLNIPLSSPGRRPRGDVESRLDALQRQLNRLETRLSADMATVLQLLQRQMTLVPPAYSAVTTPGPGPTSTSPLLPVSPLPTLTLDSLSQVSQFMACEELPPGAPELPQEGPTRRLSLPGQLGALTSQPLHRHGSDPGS
protocol notes: hERG inhibition
Assay type: cell-based
Entries and their measured pIC50 follow.
Remember the convention: pIC50 equals -log10 of concentration in molar.

| structure string | subject of test | value observed |
| --- | --- | --- |
| Cc1cccnc1Nc1nc(-c2ccc(OC3CC4(C3)CN(C3CC3)C4)cn2)ns1 | hERG potassium channels (KCNH2, expressed in HEK293 cells) (Homo sapiens, UniProt Q12809) | 6.69 |

Now let's try a different one.
Complete the entry with pIC50 for Cc1cccnc1Nc1nc(-c2ccc(OC3CCN(C4CC4)CC3)cn2)ns1
5.46

* * *

Entries and their measured logD at 24 h follow.
protocol notes: LogD measurement (octanol-water)
Format: physicochemical
condition: pH 7.4; read-out: logD
Description: LogD Measurement: Measurement of octanol-water distribution coefficient of samples using a […] stock solutions for plating. […]
When you answer, write just the number.

Field: example entries. Status: answers known.
| compound | logD at 24 h |
| --- | --- |
| Cc1cccnc1Nc1nc(-c2ccc(OC3CCN(C4CC4)CC3(F)F)cn2)ns1 (stereo not drawn) | 2.8 |
| CC(C)Oc1cnc(-c2nsc(Nc3ncccc3C(C)C)n2)cc1C(F)(F)F | 2.9 |

Complete the entry with logD at 24 h for CC(=O)Nc1cccnc1Nc1nc(-c2ccc(OC(C)C)cn2)ns1
2.4
